assay: Cmax in po dosed cynomolgus monkey; assay type: ADME, organism-based, Macaca fascicularis; parameters: route oral; conditions: in vivo
Assay Metric: Cmax (nM)
Please respond with the number in nM and leave the unit unwritten.

Please report Cmax for the following molecule: O=C1CCCN1c1ccc(Oc2ccc3c(c2)CCN(C2CCC2)CC3)nc1 145

----------
Collected pKi values appear next to each entry.
target: Histamine H3 receptor (Homo sapiens); assay: Antagonist activity at human histamine H3 receptor expressed in CHOK1 cells assessed as inhibition of GTPgammaS binding; format: functional, cell-based, CHO-K1
// pKi: -log10(molar conc.)

Here is how some compounds turned out for pKi.
{"Compound": "CN1CCN(c2ccc(Oc3ccc4c(c3)CCN(C3CCC3)CC4)nc2)C1=O", "Assay Metric": "pKi", "Observed": 10.00}
{"Compound": "CNC(=O)c1ccc(Oc2ccc3c(c2)CCN(C2CCC2)CC3)nn1", "Assay Metric": "pKi", "Observed": 8.90}

Please report pKi for the following compound: c1cnc(Oc2ccc3c(c2)CCN(C2CCC2)CC3)nc1 8.60

Please report pKi for the following compound: Cc1nnc(-c2ccc(Oc3ccc4c(c3)CCN(C3CCC3)CC4)nc2)o1 9.80

Please report pKi for the following compound: CNC(=O)c1ccc(Oc2ccc3c(c2)CCN(C2CCCC2)CC3)nc1 9.30

Please report pKi for the following compound: CC1CCC(=O)N1c1ccc(Oc2ccc3c(c2)CCN(C2CCC2)CC3)nc1 (stereo not drawn) 9.50

Please report pKi for the following compound: CC(=O)Nc1ccc(Oc2ccc3c(c2)CCN(C2CCC2)CC3)nc1 9.70

Please report pKi for the following compound: Cc1noc(C)c1-c1ccc(Oc2ccc3c(c2)CCN(C2CCC2)CC3)nc1 9.30

----------
Observed Ki, system Histamine H4 receptor (Homo sapiens).

Here is how some compounds turned out for Ki.
{"Compound String": "CNC(=O)c1ccc(Oc2ccc3c(c2)CCN(C2CCC2)CC3)nc1", "Assay Metric": "Ki", "Observed": "> 3.16 µM"}
{"Compound String": "O=C1CCCN1c1ccc(Oc2ccc3c(c2)CCN(C2CCC2)CC3)nc1", "Assay Metric": "Ki", "Observed": "> 3.16 µM"}

// moving on: another record for Ki
Find the measured Ki of CNC(=O)c1cnc(Oc2ccc3c(c2)CCN(C2CCC2)CC3)cn1 with Histamine H4 receptor (Homo sapiens) as test system. > 3.16 µM

----------
biological target: Histamine H3 receptor (Homo sapiens, UniProt Q9Y5N1); experiment: Displacement of [3H]-R-alpha-ethylhistamine from human histamine H3 receptor expressed in HEK293 cells after 45 mins by liquid scintillation spectrometry
Sequence (Q9Y5N1 whole entry): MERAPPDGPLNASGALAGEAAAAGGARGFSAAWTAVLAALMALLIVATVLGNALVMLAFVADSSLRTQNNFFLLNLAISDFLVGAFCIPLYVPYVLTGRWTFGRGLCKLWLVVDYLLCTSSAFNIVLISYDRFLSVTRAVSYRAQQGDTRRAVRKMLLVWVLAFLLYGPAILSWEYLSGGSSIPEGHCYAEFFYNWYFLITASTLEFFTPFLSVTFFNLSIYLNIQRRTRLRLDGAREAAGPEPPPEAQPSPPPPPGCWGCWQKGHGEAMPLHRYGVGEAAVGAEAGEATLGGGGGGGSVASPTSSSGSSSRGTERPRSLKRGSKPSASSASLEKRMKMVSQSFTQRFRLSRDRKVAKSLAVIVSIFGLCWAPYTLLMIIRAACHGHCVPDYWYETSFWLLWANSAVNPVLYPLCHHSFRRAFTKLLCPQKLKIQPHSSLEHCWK
Assay Metric: pKi
// pKi: -log10(molar conc.)

Please report pKi for the following compound: O=C1CCCN1c1ccc(Oc2ccc3c(c2)CCN(C2CCC2)CC3)nc1 9.69

----------
assay: Ratio of drug level in brain to blood in iv dosed Sprague-Dawley rat; assay type: ADME, organism-based
Assay Metric: Kp
Please state the value as a number alone, without comment.

Please report Kp for the following compound: O=C1CCCN1c1ccc(Oc2ccc3c(c2)CCN(C2CCC2)CC3)nc1 1.83

----------
test: Tmax in po dosed cynomolgus monkey; type: ADME, organism-based, Macaca fascicularis; details: in vivo
Assay Metric: Tmax
Param answer (str): number followed by unit.

Please report Tmax for the following compound: O=C1CCCN1c1ccc(Oc2ccc3c(c2)CCN(C2CCC2)CC3)nc1 1.3 h
